Where do these numbers come from? They come from the supplement of paper PMC10724198.

# System: Saccharomyces cerevisiae;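 also: PSI is a weighted mean of sequencing reads over stability bins, variants kept only with over 10 reads, mCherry proximal and sfGFP distal, peptide attached via GGGS linker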
# protocol.summary: protein stability index of tFT-peptide fusion (C-terminal peptide) (PSI (0-1 scale)); higher = more stable (slower turnover)
# assay.setup: genetic background: das1 deletion; temperature: 37 C
attribute.measured: protein stability index
// return a plain number; no unit text

Output measured protein stability index for this item: `SLGHIGFWRFAG`
0.77

Write down protein stability index measured for item `CFRRPLLRVVLT`
0.59

Identify measured protein stability index associated with `PHHSPPTGPPND`
0.717

For `AVTMSYQCGIFI` , write its protein stability index.
0.71

Check the records and state protein stability index for `CFSYLLIVLLFP`
0.334

Provide protein stability index value for the following sequence: `FFICCPLLVVCS`
0.0716

Tell me its protein stability index given `AGGGGRFWVCVG` as the entry.
0.726

Supply measured protein stability index of `RSLSWCTKRRCC` in your reply.
0.719

Provide measured protein stability index value, entry: `SVLASFFSAFVC`
0.726

Provide measured protein stability index value, entry: `VFRLFFLLVWLV`
0.25

Identify the reported protein stability index for the following entry. `FYSLVQAWSKAP`
0.727

Tell me measured protein stability index for `PGWALLQLVFLK` please.
0.484

Please give measured protein stability index of the following entry: `VWYSCWSFLVLF`
0.551

Supply reported protein stability index belonging to this sequence: `FCLMLWGAVLFL`
0.364

Give a short answer stating reported protein stability index for `SSAPTIVIWRFS` .
0.7

Please supply the value of reported protein stability index for the item `MSQVRYQRATRA`
0.692

Report measured protein stability index; entry is `LFLSFLLLYFRP`
0.422

Quote protein stability index reported for `RIIDRVSRLIML` please.
0.765

Provide measured protein stability index value, entry: `SLLFVFVSVGCI`
0.246

State its protein stability index for this sequence: `YLVSFVAFLRLF`
0.542

For the sequence `AFPSSVILMVFS` , give its reported protein stability index.
0.425

Using known records, supply protein stability index for `VCLWVEVLIVLG`
0.25

# return recorded protein stability index for entry `FNLFWPVSAFVV`
0.575

Answer with the recorded protein stability index for the sequence listed here: `VCLFWLFLWRIL`
0.374

Return reported protein stability index. Input sequence: `AEIVCLTDGLLF`
0.725

Determine its reported protein stability index: `YYFFLTFLCYVF`
0.255

Answer with the recorded protein stability index of `SVFRFLFLALLV` only.
0.352

Return protein stability index for the following sequence: `FSVLVVYTRLFQ`
0.558

For `WHLLRFETQMFC` , write its protein stability index.
0.712

Find the measured protein stability index of `LVRDEVLKVKLV` and report it.
0.722

# return recorded protein stability index for input `LLLFSFAALANF`
0.559

Fill in reported protein stability index for this entry: `KEKKKTKHNKIG`
0.742

Identify protein stability index associated with the sequence `KLLGVLFVLFPG`
0.569

For the sequence `TLCFRLSWVLLV` , report protein stability index.
0.22

Provide only the value of recorded protein stability index for `LQSYVSRLVRLS`
0.736

Tell me its protein stability index given `PPPRSLSPPLLS` as the entry.
0.704

Please report the measured protein stability index for `YMNLYKNVISVT`
0.522

Provide only the value of recorded protein stability index for `ICSRCLVTVLSC`
0.514

Provide protein stability index value for the following sequence: `LGFFIFSFLILK`
0.235

Please list protein stability index recorded for the sequence `LHRLRFTLVQVS`
0.327

Supply protein stability index value. Item: `VFLVRTVTQISA`
0.445
